Taken from the supplement of paper PMC5844555.

Tested on: EZH2
TEST_DETAILS: 3' UTR reporter interaction score (median-centred robust z-score of log2 firefly/Renilla activity); higher = less repression of the 3' UTR reporter
CONDITIONS_USED: HEK293T; 48 h
OBSERVATION_TYPE: 3' UTR reporter interaction score

[[record]]
residues = "GUCAUACACGGCUCUCCUCUCU"
observed_value = -0.733

[[record]]
residues = "UAGGUAGUUUCAUGUUGUUGG"
observed_value = -1.54

[[record]]
residues = "AGCAGCAUUGUACAGGGCUAUGA"
observed_value = -0.463

[[record]]
residues = "ACUGCCCUAAGUGCUCCUUCU"
observed_value = 0.0537

[[record]]
residues = "AACGCACUUCCCUUUAGAGUGU"
observed_value = 0.293

[[record]]
residues = "GAUGAGCUCAUUGUAAUAUG"
observed_value = 0.284

[[record]]
residues = "UUAAGACUUGCAGUGAUGUUUAA"
observed_value = 0.772

[[record]]
residues = "UACGUCAUCGUUGUCAUCGUCA"
observed_value = -0.223

[[record]]
residues = "UCCCUGAGACCCUUUAACCUGUG"
observed_value = 1.1

[[record]]
residues = "AGGCAGUGUAGUUAGCUGAUUGC"
observed_value = 1.87

[[record]]
residues = "UGCCUGGGUCUCUGGCCUGCGCGU"
observed_value = -0.794

[[record]]
residues = "AACCCGUAGAUCCGAUCUUGUG"
observed_value = -0.241

[[record]]
residues = "CAAAGUGCUCAUAGUGCAGGUAG"
observed_value = -0.533

[[record]]
residues = "AACAUUCAACGCUGUCGGUGAGU"
observed_value = -0.146

[[record]]
residues = "AUUGACACUUCUGUGAGUAG"
observed_value = -0.495

[[record]]
residues = "UUUCCUAUGCAUAUACUUCUUU"
observed_value = -0.62

[[record]]
residues = "AAGCAGCUGCCUCUGAGGC"
observed_value = -1.03

[[record]]
residues = "UAAUCUCAGCUGGCAACUGUG"
observed_value = -0.0854

[[record]]
residues = "GCCCCUGGGCCUAUCCUAGAA"
observed_value = 0.389

[[record]]
residues = "UGAGGUAGGAGGUUGUAUAGU"
observed_value = -3.52

[[record]]
residues = "UCCCUGAGACCCUAACUUGUGA"
observed_value = 0.82

[[record]]
residues = "CAGUAACAAAGAUUCAUCCUUGU"
observed_value = 0.69

[[record]]
residues = "AAACUACUGAAAAUCAAAGAU"
observed_value = -0.0901

[[record]]
residues = "UUUCCAUAGGUGAUGAGUCAC"
observed_value = -3.48

[[record]]
residues = "AUGACCUAUGAAUUGACAGAC"
observed_value = 0.321

[[record]]
residues = "GCGAGGACCCCUCGGGGUCUGAC"
observed_value = -0.18

[[record]]
residues = "AUGUAUAAAUGUAUACACAC"
observed_value = 0.905

[[record]]
residues = "UCUAGGCUGGUACUGCUGA"
observed_value = -0.385

[[record]]
residues = "UAGUAGACCGUAUAGCGUACG"
observed_value = -0.435

[[record]]
residues = "UUUGGCACUAGCACAUUUUUGC"
observed_value = 0.814

[[record]]
residues = "UGGCAGUGUCUUAGCUGGUUGUU"
observed_value = 0.955

[[record]]
residues = "GGCAGGUUCUCACCCUCUCUAGG"
observed_value = 0.162

[[record]]
residues = "UCCAGCAUCAGUGAUUUUGUUGA"
observed_value = 0.0592

